target: human ether-à-go-go-related gene (hERG) potassium channel (human); assay: primary screen, population patch clamp on CHO cells stably expressing hERG; higher = less effect of the substance
Among all 310,000 compounds or so, about 14,000 (4.5%) showed an effect of 50% or more. The effect is printed as a negative number. This excerpt belongs to a sample that is enriched for strong results.
Tag: YES if measured hERG current change (%, negative = inhibition) at 10uM is not below -30%, NO if it is.

Solved cases below.
O=C(/C=C/c1ccccc1)N1CCN(Cc2nc3ccccc3c(=O)[nH]2)CC1
NO
CN1CCN(Cc2nc3ccccc3c(=O)[nH]2)CC1
YES
Brc1ccccc1OCCCCCN1CCCC1
NO
Clc1ccc(Cl)c(OCCCCN2CCCCC2)c1
NO
O=c1[nH]c(CN2CCNCC2)nc2ccccc12
YES
Cc1ccc(S(=O)(=O)NC(CC(C)C)C(=O)N2CCN(C/C=C/c3ccccc3)CC2)cc1 (stereo not shown)
YES
CC(C)Cc1nnc(NC(=O)C23CC4CC(CC(C4)C2)C3)s1
YES
O=c1[nH]c(CN2CCN(C/C=C/c3ccccc3)CC2)nc2ccccc12
NO
O=c1[nH]c(CN2CCN(Cc3ccc4c(c3)OCO4)CC2)nc2ccccc12
NO
O=C(c1ccccc1)N(Cc1ccc2c(c1)OCO2)Cc1nc2ccccc2c(=O)[nH]1
YES

INPUT: Item O=C(CCN1CCN(Cc2ccccc2)CC1)Nc1ccccc1Cl with hERG current change (%, negative = inhibition) at 10uM of -30% or above?
OUTPUT: NO

INPUT: Same thing, different compound: Cn1c(=O)c([N+](=O)[O-])c(NCc2ccccc2)c2ccccc21
OUTPUT: YES

INPUT: Try this compound too: CCN1C(=O)C2(Nc3ccccc3-c3nc4ccccc4n32)c2cc(OC)ccc21 (stereo not shown)
OUTPUT: YES

INPUT: What do you get for Cc1ccccc1NC(=O)CCN1CCN(C)CC1 ?
OUTPUT: YES

INPUT: Moving on to O=C(Nc1ccc(F)cc1F)N1CCN(C/C=C/c2ccccc2)CC1
OUTPUT: NO

INPUT: Quick one: Clc1ccc(Cl)c(OCCN2CCCC2)c1
OUTPUT: NO

INPUT: And the next one, Clc1cccc(OCCCN2CCCC2)c1Cl ?
OUTPUT: NO

INPUT: Same thing, different compound: Cc1ccc2oc(C(=O)Nc3cc(C)on3)c(C)c2c1
OUTPUT: YES

INPUT: What do you get for CCC(C)c1ccccc1NC(=O)CN1CCN(C/C=C/c2ccccc2)CC1 (stereo not shown) ?
OUTPUT: NO

INPUT: And what about the compound Cc1ccccc1NC(=O)CCN1CCN(C/C=C/c2ccccc2)CC1 ?
OUTPUT: NO

INPUT: Now give it for O=C(CN1CCN(C/C=C/c2ccccc2)CC1)Nc1ccc(F)cc1F too.
OUTPUT: NO

INPUT: Then what about the compound O=C(Nc1ccccc1Cl)N1CCN(C/C=C/c2ccccc2)CC1 ?
OUTPUT: YES

====

target: human ether-à-go-go-related gene (hERG) potassium channel (human, UniProt Q12809); assay: primary screen, population patch clamp on CHO cells stably expressing hERG; higher = less effect of the substance;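 further: peak tail current of the secondary pulse compared with the same well before compound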
Sequence (Q12809 whole entry, looked up): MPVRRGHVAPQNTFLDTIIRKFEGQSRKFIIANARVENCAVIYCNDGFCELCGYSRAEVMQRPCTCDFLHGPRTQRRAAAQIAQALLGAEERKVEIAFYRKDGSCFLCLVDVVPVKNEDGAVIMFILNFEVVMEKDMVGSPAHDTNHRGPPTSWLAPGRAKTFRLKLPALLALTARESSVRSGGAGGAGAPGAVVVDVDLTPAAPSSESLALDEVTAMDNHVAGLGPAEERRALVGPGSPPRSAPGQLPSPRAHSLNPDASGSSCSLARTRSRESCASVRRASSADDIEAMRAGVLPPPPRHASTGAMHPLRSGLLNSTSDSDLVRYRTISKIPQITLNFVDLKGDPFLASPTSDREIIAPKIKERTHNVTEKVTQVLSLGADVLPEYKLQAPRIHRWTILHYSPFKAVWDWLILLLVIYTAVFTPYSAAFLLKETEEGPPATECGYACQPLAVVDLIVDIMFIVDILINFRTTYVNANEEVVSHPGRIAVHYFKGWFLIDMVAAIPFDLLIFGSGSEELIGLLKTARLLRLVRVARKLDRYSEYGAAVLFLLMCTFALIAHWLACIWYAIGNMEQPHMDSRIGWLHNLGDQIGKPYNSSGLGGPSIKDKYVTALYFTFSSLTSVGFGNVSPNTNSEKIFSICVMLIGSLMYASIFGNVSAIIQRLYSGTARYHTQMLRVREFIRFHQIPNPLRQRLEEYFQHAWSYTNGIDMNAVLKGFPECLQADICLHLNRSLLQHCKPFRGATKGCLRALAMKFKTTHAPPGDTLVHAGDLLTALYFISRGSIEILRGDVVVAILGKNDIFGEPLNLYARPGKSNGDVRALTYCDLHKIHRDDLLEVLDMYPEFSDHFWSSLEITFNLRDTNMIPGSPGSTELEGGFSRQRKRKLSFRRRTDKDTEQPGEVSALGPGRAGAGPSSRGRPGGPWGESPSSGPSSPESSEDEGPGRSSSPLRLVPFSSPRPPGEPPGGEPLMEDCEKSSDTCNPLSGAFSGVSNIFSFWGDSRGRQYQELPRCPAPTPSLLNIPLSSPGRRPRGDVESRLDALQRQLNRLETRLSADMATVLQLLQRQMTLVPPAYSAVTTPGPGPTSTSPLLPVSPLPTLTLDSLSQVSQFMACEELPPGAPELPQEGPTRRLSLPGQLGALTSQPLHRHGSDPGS
About 14,000 (4.5%) of roughly 310,000 compounds showed an effect of 50% or more. The effect is printed as a negative number. The list comes from a sample in which strong results are over-represented; it also holds close analogues and randomly drawn compounds.
Use t when the recorded hERG current change (%, negative = inhibition) at 10uM is no lower than -10%; use f when it is lower.

CC(C)CN=Cc1c(O)c([N+](=O)[O-])cc2oc3c(c12)CCCC3
t
Cc1ccc2c(c1)[nH]c1c(N3CCN(Cc4ccccc4)CC3)ncnc12
f
CS(=O)(=O)N1CCN(c2ccccc2NC(=O)Cc2ccc(Cl)cc2)CC1
f
c1ccc(CN2CCN(c3ncnc4c3[nH]c3ccccc34)CC2)cc1
f
Cc1ccc2[nH]c3c(N4CCN(Cc5ccccc5)CC4)ncnc3c2c1
f
O=C(Cc1ccc(Cl)cc1)Nc1ccccc1N1CCOCC1
t

INPUT: Does COc1ccc2c(c1)[nH]c1c(N3CCN(Cc4ccc5c(c4)OCO5)CC3)ncnc12 have a reported hERG current change (%, negative = inhibition) at 10uM of at least -10%?
OUTPUT: f

INPUT: # repeat for Cc1ccc2[nH]c3c(N4CCOCC4)ncnc3c2c1
OUTPUT: t

INPUT: Thanks! And COc1cccc2[nH]c3c(N4CCN(Cc5ccc6c(c5)OCO6)CC4)ncnc3c12 ?
OUTPUT: f

====

molecular target: human ether-à-go-go-related gene (hERG) potassium channel (human); assay: primary screen, population patch clamp on CHO cells stably expressing hERG; higher = less effect of the substance;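 further: peak tail current of the secondary pulse compared with the same well before compound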
The whole screen tested about 310,000 compounds, of which about 14,000 (4.5%) showed an effect of 50% or more. Effects have a minus sign here. For the sample, strong results were picked, then their nearest neighbours and some compounds at random.
// hERG current change (%, negative = inhibition) at 10uM lookup, one value per entry
Value expressed in %; do not type the unit.

Worked examples follow.
O=C(COc1ccc(F)cc1)N(Cc1ccco1)C1CCS(=O)(=O)C1 (stereo not drawn)
-28.4
O=C(COc1ccc(Br)cc1)N(Cc1ccco1)C1CCS(=O)(=O)C1 (stereo not drawn)
-50.6
O=C(COc1ccc(S(=O)(=O)NC2CCCCC2)cc1)NC1CC1
3.4
CC(C)c1ccc(OCC(=O)N(Cc2ccco2)C2CCS(=O)(=O)C2)cc1 (stereo not drawn)
-79.4
C=CCNC(=O)c1c2c(nc3ccccc13)-c1ccccc1CC2
-46.4

INPUT: Notebook: pull reported hERG current change (%, negative = inhibition) at 10uM for human ether-à-go-go-related gene (hERG) potassium channel (human), entry Cc1noc(C)c1CSc1nnc(C)c(=O)[nH]1
OUTPUT: 7.14

INPUT: Input O=C(COc1ccc(Cl)cc1)N(Cc1ccco1)C1CCS(=O)(=O)C1 (stereo not drawn)
OUTPUT: -20.5

INPUT: Okay, and CN(c1ccc(OCC(=O)N2CCCCC2)cc1)S(=O)(=O)c1cccs1 ?
OUTPUT: -11.2

INPUT: What would you report for O=C(COc1ccc(S(=O)(=O)NC2CCCCC2)cc1)NC1CCCC1 ?
OUTPUT: -8.19

INPUT: Another compound to look at: Cc1ccc(OCC(=O)N(Cc2ccco2)C2CCS(=O)(=O)C2)cc1 (stereo not drawn)
OUTPUT: -13

INPUT: Next: COc1cccc(-n2c(COc3ccccc3C)nnc2SCC(=O)O)c1
OUTPUT: 1.56

INPUT: Here is the next compound: COCCCNC(=O)COc1ccc(Br)cc1Cl
OUTPUT: -7.88

INPUT: Query CCN(CC)c1ccc(NC(=O)COc2ccc(N(C)S(=O)(=O)c3cccs3)cc2)cc1 next
OUTPUT: 8.15

====

hERG current change (%, negative = inhibition) at 10uM values for the molecules below.
Biological target: human ether-à-go-go-related gene (hERG) potassium channel (human);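 further: peak tail current of the secondary pulse compared with the same well before compound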
Assay: primary screen, population patch clamp on CHO cells stably expressing hERG; higher = less effect of the substance
Protocol: Briefly, Chinese hamster ovary (CHO) cells stably expressing the hERG channel were dislodged from tissue culture flasks and dispensed into PPC plates. […] During the recording, background leak currents were estimated by a 100 ms step to -80 mV from an initial holding potential of -70 mV and subtracted from the subsequent current measurement. The campaign was conducted in two phases using slight differences in recording protocol. […]
Screen size: about 310,000 compounds; about 14,000 (4.5%) showed an effect of 50% or more. The effect is printed as a negative number. For the sample, strong results were picked, then their nearest neighbours and some compounds at random.
Hi! Could you send only the number? It should be in %, unit omitted.

As a guide, the following entries are already answered.
O=C1/C(=C\c2ccccc2)C2OCC=C3CN4CCC56c7ccccc7N1C5C2C3CC46 (stereo not drawn)
-53.4
O=C(NNC1=NS(=O)(=O)c2ccccc21)c1cccc([N+](=O)[O-])c1
15
Cc1cccc(NS(=O)(=O)c2cccc(C(=O)N3CCCCCC3)c2)c1
-3.09
CCCCCn1c(=O)[nH]c2cc(C(=O)Nc3ccc(OC)cc3)ccc2c1=O
14.9
Cc1nc2scc(C)n2c(=O)c1S(=O)(=O)NCCc1ccc(Cl)cc1
7.69

Consider now this further molecule.
INPUT: Name the reported hERG current change (%, negative = inhibition) at 10uM value associated with the molecule Br.COc1ncnc2c1N=C1CC(C)(C)CC(N)=C1S2
OUTPUT: -10.4

====

Molecular target: human ether-à-go-go-related gene (hERG) potassium channel (human);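 further: peak tail current of the secondary pulse compared with the same well before compound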
Test: primary screen, population patch clamp on CHO cells stably expressing hERG; higher = less effect of the substance
Protocol: Briefly, Chinese hamster ovary (CHO) cells stably expressing the hERG channel were dislodged from tissue culture flasks and dispensed into PPC plates. […] During the recording, background leak currents were estimated by a 100 ms step to -80 mV from an initial holding potential of -70 mV and subtracted from the subsequent current measurement. The campaign was conducted in two phases using slight differences in recording protocol. […]
Screen size: about 310,000 compounds; about 14,000 (4.5%) showed an effect of 50% or more. Effects have a minus sign here. The list comes from a sample in which strong results are over-represented; it also holds close analogues and randomly drawn compounds.
Endpoint name: hERG current change (%, negative = inhibition) at 10uM (%)
Form entry: value (%) — number only.

Sample answers from the record:
COc1cc2oc(=O)cc(C)c2c(OC)c1OC
17.9
COc1cc(OC)c2c(C)cc(=O)oc2c1
15.4
Cc1ccc(S(=O)(=O)CCNC(=O)Cc2ccccc2)cc1
26.9
CCCN=C1CC(C)(C)CC(=O)/C1=C(/O)CCCN1C(=O)c2ccccc2C1=O
-11.4

INPUT: Lab note: need hERG current change (%, negative = inhibition) at 10uM for COc1ccc(C2NC(=O)c3ccccc3N2)cc1OC (stereo not drawn) on human ether-à-go-go-related gene (hERG) potassium channel (human), anyone have it?
OUTPUT: 13

INPUT: Queued: CC1(C)COC(Nc2ccc(Cl)cc2)=N1
OUTPUT: -35.8

Data origin: paper PMC4336329
